ASSAYED SYSTEM: T1, LRRC15-hFc (Sino Biologicals, 15786-H02H) (UniProt Q8TF66 22-538)
T1 construct: also called LRRC15-Fc
T1 sequence (looked up): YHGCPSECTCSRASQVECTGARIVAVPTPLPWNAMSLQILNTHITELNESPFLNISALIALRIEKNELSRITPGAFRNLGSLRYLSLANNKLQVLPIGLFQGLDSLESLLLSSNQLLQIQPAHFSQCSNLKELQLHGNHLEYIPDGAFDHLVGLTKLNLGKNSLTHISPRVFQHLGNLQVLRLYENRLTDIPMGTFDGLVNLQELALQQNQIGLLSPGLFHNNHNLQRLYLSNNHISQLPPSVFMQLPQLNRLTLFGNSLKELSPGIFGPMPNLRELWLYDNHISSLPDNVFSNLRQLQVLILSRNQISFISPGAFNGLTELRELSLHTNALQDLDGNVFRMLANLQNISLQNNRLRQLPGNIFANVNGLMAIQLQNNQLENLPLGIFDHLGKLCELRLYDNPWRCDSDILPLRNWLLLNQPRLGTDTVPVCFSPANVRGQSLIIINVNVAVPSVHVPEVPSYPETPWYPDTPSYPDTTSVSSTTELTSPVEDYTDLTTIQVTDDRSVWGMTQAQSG
ASSAY METHOD TEXT: ELISA (Example 33): cell-free expressed scFv on LRRC15; x axis Log (concentration, nM)

BINDER: B07 (scFv) scFv: MSTSTQVQLVQSGAEVKKPGASVKVSCKASGYTFTGYYMHWVRQAPGQGLEWMGWMDPNNDDADYAQRFQGRVTMTRDTSTSTVYMELSSLRSEDTAVYYCASLAAAGPYYYYGMDVWGQGTLVTVSSASGGGGSGGGGSGGGGSHASDIQMTQSPSSLSASVGDRVTITCQASQDISNYLNWYQQKPGKAPKLLIYGASILEAGVPSRFSGSGSGTDFTLTISSLQPEDFATYYCQQSYSAPITFGQGTRLEIKRAAAGSGSEQKLISEEDLGKPIPNPLLGLDST
binding result: binds
